All values here come from patent US20090081197A1.

# MEASURED_TARGET: MC1-R of B-16 mouse melanoma cells (mouse) (UniProt Q01727)
# Sequence (Q01727 whole entry): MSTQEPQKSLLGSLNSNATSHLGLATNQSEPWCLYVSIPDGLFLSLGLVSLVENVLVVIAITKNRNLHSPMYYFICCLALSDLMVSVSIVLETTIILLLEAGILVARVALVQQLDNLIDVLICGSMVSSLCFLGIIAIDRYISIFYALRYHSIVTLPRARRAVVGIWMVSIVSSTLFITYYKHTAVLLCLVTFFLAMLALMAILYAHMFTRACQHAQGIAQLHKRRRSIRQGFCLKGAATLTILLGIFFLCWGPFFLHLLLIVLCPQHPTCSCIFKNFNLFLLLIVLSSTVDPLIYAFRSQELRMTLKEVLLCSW
# RUN_DESCRIPTION: radioligand competition, [I125]-NDP-α-MSH, B-16 membranes
MEASUREMENT_KIND: pKi
Please treat pKi as minus the base-10 logarithm of the molar concentration.

Can you look up the measured pKi of XDHXRXK (N-terminal acetyl; Nle at 1 (X); D-Nal 2 at 4 (X); Nal 2 at 6 (X); cyclo(Asp 2 to Lys 7); free C-terminal acid) [Ac-Nle-cyclo(Asp-His-D-Nal 2-Arg-Nal 2-Lys)-OH] for me?
9.70
